Hello, the source for this data is patent US8247211B2, in case you need it.

test system: Enterococcus sp.; test: In vitro antibacterial evaluation: minimum inhibitory concentration (MIC), broth dilution method; type: cell-based; details: Enterococcus faecalis (ATCC 29212); 18 hours at 35° C.
Readings of MIC Enterococcus faecalis (ATCC 29212) for the listed compounds
Numeric answer only, unit µg/mL assumed.

Solved entries:
# compound, tgt, unitsSymbol, MIC Enterococcus faecalis (ATCC 29212)
measured = [
    ("CC(c1ccccc1)C1NC(=O)CNC(=O)C(CO)NC(=O)C(C(O)C2CNC(=N)N2C2OC(CO)C(O)C(O)C2O)NC(=O)C(C(O)C2CNC(=N)N2)NC(=O)C(Cc2ccc(OC3OC(CO)C(OC4OC(COCC=C(c5ccccc5)c5ccccc5)C(O)C(O)C4O)C(O)C3O)cc2)NC1=O (stereo not shown)", "Enterococcus sp.", "µg/mL", 4),
    ("N=C1NCC(C(O)C2NC(=O)C(Cc3ccc(OC4OC(CO)C(OC5OC6COC(CCc7ccccc7)OC6C(O)C5O)C(O)C4O)cc3)NC(=O)C(CC3CCCCC3)NC(=O)CNC(=O)C(CO)NC(=O)C(C(O)C3CNC(=N)N3C3OC(CO)C(O)C(O)C3O)NC2=O)N1 (stereo not shown)", "Enterococcus sp.", "µg/mL", 1),
]

Now for the compound whose MIC Enterococcus faecalis (ATCC 29212) we want.
Q. I'd like to know its MIC Enterococcus faecalis (ATCC 29212). The compound in question is CCCCN1CC(C(O)C2NC(=O)C(C(O)C3CNC(=N)N3)NC(=O)C(Cc3ccc(OC4OC(CO)C(OC5OC6COC7(OC6C(O)C5O)C5CC6CC(C5)CC7C6)C(O)C4O)cc3)NC(=O)C(C(C)c3ccccc3)NC(=O)CNC(=O)C(CO)NC2=O)N(C2OC(CO)C(O)C(O)C2O)C1=N (stereo not shown)
A. 4
